- Experimental system: Leucine aminopeptidase (Plasmodium falciparum (isolate 3D7))
- Assay info: P. falciparum M17LAP inhibitors, primary screen, biochemical, fluorogenic H-Leu-NHMec substrate, 1536-well (AID 1619);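 further: plate controls were full reaction with DMSO carrier for no effect and no enzyme background for full effect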
- Experimental setup: recombinant M17LAP, H-Leu-NHMec fluorogenic kinetic assay; at 30 µM; stronger effect = higher value
In all, about 220,000 compounds went through this assay and about 830 (0.38%) were called active. Not all results are given here. Results with a measured potency or affinity are listed apart.
Value kind: inhibition (%)

INSERT INTO results (compound, experimental_system, recorded_value) VALUES
  ('CCc1ccc(NC(=O)C(C)Nc2ccc(S(=O)(=O)NC(C)=O)cc2)cc1 (stereo unspecified)', 'Leucine aminopeptidase (Plasmodium falciparum (isolate 3D7))', 3.98),
  ('Cc1cccnc1CN1CCN(C(=O)c2cc(COc3ccc4ncccc4c3)on2)CC1', 'Leucine aminopeptidase (Plasmodium falciparum (isolate 3D7))', 0.97),
  ('CN(C)/C=N/c1sc2c(c1C#N)CCCC2', 'Leucine aminopeptidase (Plasmodium falciparum (isolate 3D7))', 0.79),
  ('CCc1nnc(NS(=O)(=O)c2ccc(N3C(=O)c4ccccc4C3=O)cc2)s1', 'Leucine aminopeptidase (Plasmodium falciparum (isolate 3D7))', 19.2),
  ('CCc1nnc(NS(=O)(=O)c2ccc(N=CC3=C(O)CC(C)(C)CC3=O)cc2)s1', 'Leucine aminopeptidase (Plasmodium falciparum (isolate 3D7))', 37.1),
  ('c1coc(-c2ncc[nH]2)c1', 'Leucine aminopeptidase (Plasmodium falciparum (isolate 3D7))', -2.51),
  ('c1coc(-c2nc(-c3ccco3)c(-c3ccco3)nc2-c2ccco2)c1', 'Leucine aminopeptidase (Plasmodium falciparum (isolate 3D7))', 48.1),
  ('O=C(CN1CCN(Cc2ccccc2)CC1)NCC1COc2ccccc2O1 (stereo unspecified)', 'Leucine aminopeptidase (Plasmodium falciparum (isolate 3D7))', 17),
  ('COC(=O)c1ccc(C(=O)OC)c(NC(=O)CSc2cccc[n+]2[O-])c1', 'Leucine aminopeptidase (Plasmodium falciparum (isolate 3D7))', -1.81),
  ('CCn1c(NCc2ccco2)nc2ccccc21', 'Leucine aminopeptidase (Plasmodium falciparum (isolate 3D7))', 3.48),
  ('CN(C)/C=N/c1sc2c(c1C#N)CCCCC2', 'Leucine aminopeptidase (Plasmodium falciparum (isolate 3D7))', 5.07);

###

Below, each entry is listed alongside its reported inhibition.
- Experimental system: Leucine aminopeptidase (Plasmodium falciparum (isolate 3D7))
- Assay info: P. falciparum M17LAP inhibitors, primary screen, biochemical, fluorogenic H-Leu-NHMec substrate, 1536-well (AID 1619);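 further: plate controls were full reaction with DMSO carrier for no effect and no enzyme background for full effect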
- Experimental setup: recombinant M17LAP, H-Leu-NHMec fluorogenic kinetic assay; at 30 µM; stronger effect = higher value
About 830 (0.38%) of roughly 220,000 compounds were called active. These entries were drawn from the full list. Entries with a potency or affinity are not part of this list.
Value kind: inhibition (%)

INSERT INTO results (compound, recorded_value) VALUES
  ('Cc1ccc(CNC(=O)C2CCCN(c3nc4ccsc4c(=O)s3)C2)cc1 (stereo unspecified)', -6.15),
  ('COc1cccc(Nc2cc(C)nc3nc(C)nn23)c1', 1.55),
  ('O=C(NCCn1cc(SCc2ccc(F)cc2)c2ccccc21)c1ccccc1F', 12.4),
  ('Nc1nonc1-c1nc2ccccc2n1CC(=O)N/N=C/c1ccc(-c2cccc(C(=O)O)c2)o1', 31.4),
  ('COc1ccc(C(=O)CC2OC(=O)c3c2ccc(OC)c3OC)cc1 (stereo unspecified)', 9.31),
  ('Cc1cccc(Nc2ncnc3ccc(Br)cc23)c1', 5.43);
